Every entry's value here was drawn from patent US5686486A.

biological target: UniProt P04585; test: biochemical; conditions: read-out: HIV-1 Protease % Inhib, dose 1.100 uM
// reported inhibition at 1.1 µM per item
Give the quantity in %, number only.

Some solved cases for reference:
Compound: CCCc1ccc(S(=O)(=O)Nc2cccc(C(c3c(O)c4c(oc3=O)CCCCCC4)C3CC3)c2)cc1 (stereo not shown)
Endpoint Name: inhibition at 1.1 µM
Units Symbol: %
Endpoint Value: 88.2
//
Compound: CCCS(=O)(=O)Nc1cccc(C(c2c(O)c3c(oc2=O)CCCCCC3)C2CC2)c1 (stereo not shown)
Endpoint Name: inhibition at 1.1 µM
Units Symbol: %
Endpoint Value: 103
//
Compound: CCOC(=O)Nc1cccc(C(c2c(O)c3c(oc2=O)CCCCCC3)C2CC2)c1 (stereo not shown)
Endpoint Name: inhibition at 1.1 µM
Units Symbol: %
Endpoint Value: 74.1
//
Compound: O=C(O)c1cccc(S(=O)(=O)Nc2cccc(C(c3c(O)c4c(oc3=O)CCCCCC4)C3CC3)c2)c1 (stereo not shown)
Endpoint Name: inhibition at 1.1 µM
Units Symbol: %
Endpoint Value: 111
//
Compound: O=c1oc2c(c(O)c1C(c1cccc(NS(=O)(=O)Nc3ccccc3)c1)C1CC1)CCCCCC2 (stereo not shown)
Endpoint Name: inhibition at 1.1 µM
Units Symbol: %
Endpoint Value: 105

[ask] Any idea what its inhibition at 1.1 µM is? The compound is O=C(Cc1ccccc1)Nc1cccc(C(c2c(O)c3c(oc2=O)CCCCCC3)C2CC2)c1 (stereo not shown)
[reply] 74

[ask] Query (compound): O=c1oc2c(c(O)c1C(c1ccccc1)C1CC1)CCCCCC2CC1CCCOC1 (stereo not shown) ; field requested: inhibition at 1.1 µM
[reply] 71.6

[ask] // inhibition at 1.1 µM lookup, key: O=c1oc2c(c(O)c1C(c1cccc(NS(=O)(=O)c3ccc(O)cc3)c1)C1CC1)CCCCCC2 (stereo not shown)
[reply] 91.2

[ask] Param item = CC(C)C(c1cccc(NS(=O)(=O)c2cn(C)cn2)c1)c1c(O)c2c(oc1=O)CCCCCC2 (stereo not shown) ; retrieve measured inhibition at 1.1 µM.
[reply] 131

###

Reported inhibition at 30 µM by item:
target: HIV-1 protease (Human immunodeficiency virus type 1 group M subtype B); experiment: biochemical; details: read-out: HIV-1 Protease % Inhib, dose 30.000 uM
State just the number; it will be interpreted in %.

[ask] I would be grateful if you could share the reported inhibition at 30 µM for Nc1cc(NS(=O)(=O)c2ccccc2)cc(C(c2c(O)c3c(oc2=O)CCCCCC3)C2CC2)c1 (stereo not drawn) [Example 486] .
[reply] 109

[ask] Can you share its inhibition at 30 µM? I mean this compound: CCC(c1ccc(C)s1)c1c(O)c2c(oc1=O)CCCCCC2 (stereo not drawn) [Example 381]
[reply] 96.7

[ask] Query (compound): CCC1CCCCc2c1oc(=O)c(C(c1ccccc1)C1CC1)c2O (stereo not drawn) [Example 185] ; field requested: inhibition at 30 µM
[reply] 91.8

[ask] I'd like to know its inhibition at 30 µM. The compound in question is O=c1oc2c(c(O)c1C(c1ccccc1)C1CC1)CCCCC2Cc1ccccc1 (stereo not drawn) [Example 182]
[reply] 98.7

[ask] State the recorded inhibition at 30 µM for this entry: NC(=O)c1ccc(S(=O)(=O)Nc2cccc(C(c3c(O)c4c(oc3=O)CCCCCC4)C3CC3)c2)cc1 (stereo not drawn) [Example 365A]
[reply] 116

[ask] Query: inhibition at 30 µM; subject: Cc1nn(C)c(Cl)c1S(=O)(=O)Nc1cccc(C(c2c(O)c3c(oc2=O)CCCCCC3)C2CC2)c1 (stereo not drawn) [Example 294]
[reply] 110

[ask] // query inhibition at 30 µM value for entry Cc1ccccc1S(=O)(=O)Nc1cccc(C(c2c(O)c3c(oc2=O)CCCCCC3)C2CC2)c1 (stereo not drawn) [Example 330]
[reply] 106

[ask] Bench note: what inhibition at 30 µM did O=c1oc2c(c(O)c1C(c1cccc(NS(=O)(=O)c3cccc(N(CCO)CCO)c3)c1)C1CC1)CCCCCC2 (stereo not drawn) [Example 355 (Second Title Compound)] show?
[reply] 108

[ask] For the compound CC(C)CC(c1cccc(NS(=O)(=O)c2ccc(C#N)cc2)c1)c1c(O)c2c(oc1=O)CCCCCC2 (stereo not drawn) [Example 426] , what inhibition at 30 µM is on record?
[reply] 106

[ask] Record request: inhibition at 30 µM value, item O=c1oc2c(c(O)c1C(c1cccc(NS(=O)(=O)c3cccc4cccnc34)c1)C1CC1)CCCCCC2 (stereo not drawn) [Example 263]
[reply] 98.3

[ask] GET /values?readout=inhibition at 30 µM&item= CC(C)(C)OC(=O)NCCC(=O)Nc1cccc(C(c2c(O)c3c(oc2=O)CCCCCC3)C2CC2)c1 (stereo not drawn) [Example 196]
[reply] 95.8

[ask] Need inhibition at 30 µM of O=c1oc2c(c(O)c1C(c1cccc(NS(=O)(=O)c3ccc(N=Nc4ccccc4)cc3)c1)C1CC1)CCCCCC2 (stereo not drawn) [Example 308] , thanks.
[reply] 86.8

[ask] Item under review: O=C(Nc1cccc(C(c2c(O)c3c(oc2=O)CCCCCC3)C2CC2)c1)c1ccc(F)cc1 (stereo not drawn) [Example 210] . Reported inhibition at 30 µM?
[reply] 97.3

[ask] Fill in the blank: the reported inhibition at 30 µM of O=c1oc2c(c(O)c1C(c1cccc(NS(=O)(=O)c3cc(Br)c(Br)s3)c1)C1CC1)CCCCCC2 (stereo not drawn) [Example 303] is ____.
[reply] 98

[ask] Need inhibition at 30 µM of O=c1oc2c(c(O)c1C(c1cccc(NS(=O)(=O)c3cc(Cl)cc(Cl)c3)c1)C1CC1)CCCCCC2 (stereo not drawn) [Example 288] , thanks.
[reply] 101

[ask] Would you mind telling me what inhibition at 30 µM value was observed for CC(C)(C)OC(=O)NCC(=O)Nc1cccc(C(c2c(O)c3c(oc2=O)CCCCCC3)C2CC2)c1 (stereo not drawn) [Example 200] ?
[reply] 99.1

[ask] Bench note: what inhibition at 30 µM did O=C(NCc1ccc(S(=O)(=O)Nc2cccc(C(c3c(O)c4c(oc3=O)CCCCCC4)C3CC3)c2)s1)c1ccccc1 (stereo not drawn) [Example 296] show?
[reply] 114

[ask] Sample CC(C)(C)OC(=O)NCC(=O)Nc1cccc(C(c2c(O)c3c(oc2=O)CCCCCC3)C2CC2)c1 (single isomer, unassigned) [Example 238] — what was its inhibition at 30 µM?
[reply] 115

[ask] Entry O=c1oc2c(c(O)c1C(c1ccccc1)C1CC1)CCCCC2CC1CCCO1 (stereo not drawn) [Example 189] has what inhibition at 30 µM?
[reply] 99.3

[ask] Need inhibition at 30 µM, item COc1ccc(S(=O)(=O)Nc2cccc(C(c3c(O)c4c(oc3=O)CCCCCC4)C3CC3)c2)cc1OC (stereo not drawn) [Example 335]
[reply] 106
